test: Drug level in brain of mouse at 10 mg/kg, ip administered as single dose measured at 0.5 hrs
Type: ADME, organism-based
recorded.conditions: read-out: Drug uptake
property.measured: concentration at 0.5 h (ng/mL)
Numbers only, in ng/mL.

Tell me concentration at 0.5 h reported for CC1CN(CC(=O)NC2C3CC4CC2CC(C(N)=O)(C4)C3)S(=O)(=O)N(c2c(Cl)cc(C(F)(F)F)cc2Cl)C1 (stereo unspecified) 1780

---

test: Drug level in plasma of mouse at 10 mg/kg, ip administered as single dose measured at 0.5 hrs
Type: ADME, organism-based
property.measured: concentration at 0.5 h (ng/mL)
Give bare numbers, in ng/mL.

Tell us which concentration at 0.5 h value is on record for CC1CN(CC(=O)NC2C3CC4CC2CC(C(N)=O)(C4)C3)S(=O)(=O)N(c2c(Cl)cc(C(F)(F)F)cc2Cl)C1 (stereo unspecified) 4770

Hello, the source for this data is ChEMBL document CHEMBL4602621, in case you need it.
